# credit: patent EP0908457B1

- Tested on: Oryza sativa, (L.) Tebonnet
- experimental.details: Rice tolerance to post-transplant applications under flooded paddy conditions (Example 187), ORYSAT (Rice, Tebonnet)
- conditions.used: Rate 0.0320 kg/ha, rated three to four weeks after treatment
Please use true for ORYSAT herbicidal effect rating under 2 and false for everything else, ties included.

INSERT INTO measurements (input_smiles, class) VALUES
  ('C=Cc1nsc2ccc(-n3c(=O)cc(C(F)(F)F)n(C)c3=O)cc12', 'false'),
  ('CO/N=C/c1nsc2ccc(-n3c(=O)cc(C(F)(F)F)n(C)c3=O)cc12', 'false'),
  ('C#CCOC(=O)COc1c(-c2nsc3ccc(-n4c(=O)cc(C(F)(F)F)n(C)c4=O)cc23)ccc(C)c1C', 'false'),
  ('Cn1c(C(F)(F)F)cc(=O)n(-c2ccc3snc(-c4ccc(OCC(=O)O)cc4)c3c2)c1=O', 'true'),
  ('COC(=O)COc1ccc(-c2nsc3ccc(-n4c(=O)cc(C(F)(F)F)n(C)c4=O)cc23)cc1', 'true'),
  ('Cc1ccc(OCC(=O)NS(=O)(=O)c2sc3ccc(Cl)cc3c2C)c(-c2nsc3ccc(-n4c(=O)cc(C(F)(F)F)n(C)c4=O)cc23)c1', 'true');

====

- System: Cyperus iria
- experimental.details: Preemergence weed control under flooded paddy conditions, CYPIR (Rice Flatsedge); note: meaning of each grade not given here
- Type: in vivo
- conditions.used: Rate 0.2500 kg/ha; preemergence weeds, flooded paddy; rated three to four weeks after treatment
// reported herbicidal effect rating, CYPIR per item
readout: herbicidal effect rating, CYPIR

INSERT INTO results (compound, assayed_system, recorded_value) VALUES
  ('C[C@@H](Br)[C@H](Br)c1nsc2ccc(-n3c(=O)cc(C(F)(F)F)n(C)c3=O)cc12 [Example 303]', 'Cyperus iria', 8.5),
  ('C[C@H](Br)[C@H](Br)c1nsc2ccc(-n3c(=O)cc(C(F)(F)F)n(C)c3=O)cc12 [Example 302]', 'Cyperus iria', 8.5),
  ('COC(=O)C(C)Oc1cccc(-c2nsc3ccc(-n4c(=O)cc(C(F)(F)F)n(C)c4=O)cc23)c1 (stereo not shown) [Example 325]', 'Cyperus iria', 9.0),
  ('CC(C)Oc1cccc(-c2nsc3ccc(-n4c(=O)cc(C(F)(F)F)n(C)c4=O)cc23)c1 [Example 328]', 'Cyperus iria', 9.0),
  ('CC(=O)c1nsc2ccc(-n3c(=O)cc(C(F)(F)F)n(C)c3=O)cc12 [Example 307]', 'Cyperus iria', 7.5),
  ('COC(=O)COc1ccc(OC)cc1-c1nsc2ccc(-n3c(=O)cc(C(F)(F)F)n(C)c3=O)cc12 [Example 347]', 'Cyperus iria', 9.0),
  ('COC(=O)CN(Cc1nsc2ccc(-n3c(=O)cc(C(F)(F)F)n(C)c3=O)cc12)S(C)(=O)=O [Example 306]', 'Cyperus iria', 0.0);

====

- Tested on: Oryza sativa, (L.) Tebonnet
- experimental.details: Rice tolerance to post-transplant applications under flooded paddy conditions (Example 187), ORYSAT (Rice, Tebonnet); for herbicidal effect rating ORYSAT: meaning of each grade not given here
- conditions.used: Rate 0.1250 kg/ha, rated three to four weeks after treatment
readout: herbicidal effect rating ORYSAT

INSERT INTO assay_data (compound, assayed_system, recorded_value) VALUES
  ('Cn1c(C(F)(F)F)cc(=O)n(-c2ccc3snc(COCc4ccc(Cl)cc4Cl)c3c2)c1=O [Example 585]', 'Oryza sativa, (L.) Tebonnet', 1.5),
  ('CCCS(=O)(=O)NC(=O)C(C)Oc1ccc(C)cc1-c1nsc2ccc(-n3c(=O)cc(C(F)(F)F)n(C)c3=O)cc12 (stereo not shown) [Example 569]', 'Oryza sativa, (L.) Tebonnet', 0.0),
  ('Cn1c(C(F)(F)F)cc(=O)n(-c2ccc3snc(C#N)c3c2)c1=O [Example 373]', 'Oryza sativa, (L.) Tebonnet', 6.0),
  ('Cn1c(C(F)(F)F)cc(=O)n(-c2ccc3snc(C(=O)NS(=O)(=O)c4ccc5ccccc5c4)c3c2)c1=O [Example 357]', 'Oryza sativa, (L.) Tebonnet', 2.0);

====

- Tested on: Sagittaria pygmaea, L.
- experimental.details: Preemergence weed control under flooded paddy conditions, SAGPY (Arrowhead (Pygmaea))
- Type: in vivo
- conditions.used: 0.0320 kg/ha; preemergence, flooded paddy; rated three to four weeks after treatment
readout: SAGPY herbicidal rating

INSERT INTO measurements (compound, recorded_value) VALUES
  ('COC(=O)C(C)Oc1cc(Cl)c(C)cc1-c1nsc2ccc(-n3c(=O)cc(C(F)(F)F)n(C)c3=O)cc12 (stereo not shown)', 0.0),
  ('COC(=O)COc1ccc(I)cc1-c1nsc2ccc(-n3c(=O)cc(C(F)(F)F)n(C)c3=O)cc12', 0.0),
  ('CC(C)N(C(C)C)S(=O)(=O)NC(=O)COc1ccccc1-c1nsc2ccc(-n3c(=O)cc(C(F)(F)F)n(C)c3=O)cc12', 0.0),
  ('COc1cc(Cl)c(C)cc1-c1nsc2ccc(-n3c(=O)cc(C(F)(F)F)n(C)c3=O)cc12', 2.5),
  ('COc1ccc(C)cc1-c1nsc2cc(F)c(-n3c(=O)cc(C(F)(F)F)n(C)c3=O)cc12', 1.0),
  ('COC(=O)COc1cc(C)c(I)cc1-c1nsc2ccc(-n3c(=O)cc(C(F)(F)F)n(C)c3=O)cc12', 0.0),
  ('Cc1ccccc1CS(=O)(=O)NC(=O)c1nsc2ccc(-n3c(=O)cc(C(F)(F)F)n(C)c3=O)cc12', 2.0);

====

Reported values of MOOVA herbicidal effect rating for individual entries
- Tested on: Monochoria vaginalis, Presl.
- experimental.details: Preemergence weed control under flooded paddy conditions, MOOVA (Monochoria)
- Type: in vivo
- conditions.used: Rate 0.0620 kg/ha; preemergence, flooded paddy; rated three to four weeks after treatment
readout: MOOVA herbicidal effect rating

INSERT INTO measurements (input_smiles, readout, recorded_value) VALUES
  ('Cc1ccc(OCC(=O)OC(C)(C)C)c(-c2noc3ccc(-n4c(=O)cc(C(F)(F)F)n(C)c4=O)c(Cl)c23)c1', 'MOOVA herbicidal effect rating', 9.0),
  ('CC(C)OP(=O)(Cc1nsc2ccc(-n3c(=O)cc(C(F)(F)F)n(C)c3=O)cc12)OC(C)C', 'MOOVA herbicidal effect rating', 0.0),
  ('COC(=O)COCc1nsc2ccc(-n3c(=O)cc(C(F)(F)F)n(C)c3=O)cc12', 'MOOVA herbicidal effect rating', 9.0),
  ('CNC.Cn1c(C(F)(F)F)cc(=O)n(-c2ccc3snc(COCC(=O)O)c3c2)c1=O', 'MOOVA herbicidal effect rating', 9.0);

====

- Test system: Oryza sativa, (L.) Tebonnet
- experimental.details: Rice tolerance to post-transplant applications under flooded paddy conditions (Example 187), ORYSAT (Rice, Tebonnet)
- conditions.used: Rate 0.1250 kg/ha, rated three to four weeks after treatment
readout: ORYSAT herbicidal effect rating

INSERT INTO assay_data (input_smiles, assayed_system, recorded_value) VALUES
  ('CNC.Cn1c(C(F)(F)F)cc(=O)n(-c2ccc3snc(COCC(=O)NS(C)(=O)=O)c3c2)c1=O', 'Oryza sativa, (L.) Tebonnet', 0.0),
  ('C=CCOc1nc(C(F)(F)F)cc(=O)n1-c1ccc2snc(-c3cc(C)ccc3OC)c2c1', 'Oryza sativa, (L.) Tebonnet', 0.0),
  ('Cn1c(C(F)(F)F)cc(=O)n(-c2ccc3snc(CSCC(=O)O)c3c2)c1=O', 'Oryza sativa, (L.) Tebonnet', 4.0),
  ('COC(=O)COc1c(-c2nsc3ccc(-n4c(=O)cc(C(F)(F)F)n(C)c4=O)cc23)ccc(C)c1C', 'Oryza sativa, (L.) Tebonnet', 4.0);

====

- System: Cyperus serotinus, Rottb.
- experimental.details: Preemergence weed control under flooded paddy conditions, CYPSE (Flatsedge)
- Assay type: in vivo
- conditions.used: 0.2500 kg/ha, preemergence, rated three to four weeks after treatment
With a cut-off of 5, any CYPSE herbicidal rating strictly below it is called class 1; any CYPSE herbicidal rating meeting it or above is called class 0.

INSERT INTO assay_data (molecule, class) VALUES
  ('Cn1c(C(F)(F)F)cc(=O)n(-c2ccc3snc(COC(=O)c4ccno4)c3c2)c1=O', 'class 0'),
  ('Cn1c(C(F)(F)F)cc(=O)n(-c2ccc3snc(C(=O)NS(=O)(=O)Cc4cccc(Cl)c4)c3c2)c1=O', 'class 1'),
  ('COC(=O)COc1cc(C)ccc1-c1nsc2cc(F)c(-n3c(=O)cc(C(F)(F)F)n(C)c3=O)cc12', 'class 0'),
  ('Cn1c(C(F)(F)F)cc(=O)n(-c2ccc3snc(C(C)(C)C(=O)OCc4ccco4)c3c2)c1=O', 'class 1'),
  ('COC(=O)C(C)Oc1cc(C)c(I)cc1-c1nsc2ccc(-n3c(=O)cc(C(F)(F)F)n(C)c3=O)cc12 (stereo not shown)', 'class 1'),
  ('COC(=O)COc1cc(Cl)c(C)cc1-c1nsc2ccc(-n3c(=O)cc(C(F)(F)F)n(C)c3=O)cc12', 'class 0'),
  ('Cn1c(C(F)(F)F)cc(=O)n(-c2ccc3snc(COC(=O)c4ccc(Cl)nc4)c3c2)c1=O', 'class 0'),
  ('Cn1c(C(F)(F)F)cc(=O)n(-c2ccc3snc(COCOCc4ccccc4)c3c2)c1=O', 'class 0'),
  ('Cn1c(C(F)(F)F)cc(=O)n(-c2ccc3snc(COC(=O)c4ccc([N+](=O)[O-])o4)c3c2)c1=O', 'class 0'),
  ('Cn1c(C(F)(F)F)cc(=O)n(-c2ccc3snc(C(C)(C)C(=O)O)c3c2)c1=O', 'class 1'),
  ('COC(=O)COc1cc(C)c(I)cc1-c1nsc2ccc(-n3c(=O)cc(C(F)(F)F)n(C)c3=O)cc12', 'class 0'),
  ('Cn1c(C(F)(F)F)cc(=O)n(-c2ccc3snc(COC(=O)C4CC4)c3c2)c1=O', 'class 0'),
  ('Cn1c(C(F)(F)F)cc(=O)n(-c2ccc3snc(COC(=O)c4cccs4)c3c2)c1=O', 'class 1'),
  ('COc1cc(Cl)c(C)cc1-c1nsc2ccc(-n3c(=O)cc(C(F)(F)F)n(C)c3=O)cc12', 'class 0');
